Listed binders paired with reported IC50 ratio mouse/human
# experimental system: T1, mouse PAI-1 (mouse, UniProt P22777 24-401)
# T1 sequence: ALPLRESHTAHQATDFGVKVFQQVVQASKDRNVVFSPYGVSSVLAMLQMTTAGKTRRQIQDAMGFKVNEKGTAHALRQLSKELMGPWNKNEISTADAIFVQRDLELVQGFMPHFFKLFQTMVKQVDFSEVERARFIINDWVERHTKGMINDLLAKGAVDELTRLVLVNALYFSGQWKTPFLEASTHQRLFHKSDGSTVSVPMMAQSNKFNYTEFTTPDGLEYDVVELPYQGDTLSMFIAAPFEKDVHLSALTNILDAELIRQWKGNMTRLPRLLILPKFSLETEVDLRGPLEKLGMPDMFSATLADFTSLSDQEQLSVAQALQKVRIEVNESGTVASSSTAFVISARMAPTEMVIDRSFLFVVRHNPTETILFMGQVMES
# test protocol: cell-based or functional assay

{"columns": ["binder", "IC50 ratio mouse/human"],
 "data": [
  ["Antibody 27, IgG1, not germlined (antibody, V domains shown, whole IgG1; also called Ab 27) VH: QVQLQQSGAEVKKPGSSVKVSCKASGGAFSSYAISWVRQAPGQGLEWMGGIIPTFGTANYAQKFQGRVTITADESTSTAYMELSGLRSEDTAVYYCAREKRQWLEGHFDYWGRGTPVTVSS VL: DIQMTQSPSFLSASIGDRVTITCRASEGIYHNLAWYQQKPGKAPKLLIYRASSLASGAPSRFSGSGSGTDFTLTISSLQPDDFATYYCQQYSNYPLTFGGGTKLEIK", 3.3],
  ["Antibody 25, scFv (scFv, V domains shown) VH: QVQLQQSGAEVKKPGSSVKVSCKASGGTFSSYAISWVRQAPGQGLEWMGGIIPTFGTANYAQKFQGRVTITADESTSTAYMELSGLRSEDTAVYYCARERRQWLEGHFDYWGQGTPVTVSS VL: DIQMTQSPSFLSASIGDRVTITCRASESIYHELAWYQQKPGKAPKLLIYKASSLASGAPSRFSGSGSGTAFTLTISSLQPDDFATYYCQQYSNYPLTFGGGTKLEIK", 13.1],
  ["Antibody 20, IgG1, not germlined (antibody, V domains shown, whole IgG1; also called Ab 20) VH: QVQLQQSGAEVKKPGSSVKVSCKASGGTFSSYAISWVRQAPGQGLEWMGGIIPTFGTANYAQKFQGRVTITADESTSTAYMELSSLRSEDTAVYYCAREKRQWLEGHFDYWGRGTLVTVSS VL: DIQMTQSPSTLSASVGDRVTITCRASEGIYHELAWYQQKPGKAPKLLIYRASSLASGVPSRFSGSRSGTEFTLTISSLQPDDFATYYCQQYSDYPLTFGGGTKVEIK", 0.9]
]}

Reference for the values: patent US20120114652A1
